Protocol Details: 101 and 102 PK studies combined (fasted)
Assay type: in vivo
Experimental Parameters: human, plasma, oral, 12.5 mg, 101 and 102 studies (FIG. 47), read-out: geometric mean Cmax
Experimental Readout: Cmax (ng/mL)

Smiles Notation	Experimental Readout	Recorded Result
CS(=O)(=O)c1ccc(C2=C(c3ccccc3)C(=O)OC2)cc1	Cmax	144

----------
Protocol Details: TRM-201-PK-102 single-dose four-period crossover pharmacokinetic study, fasted healthy subjects
Format: in vivo, human
Experimental Parameters: human, plasma, oral, 12.5 mg, 45 minutes, read-out: arithmetic mean plasma concentration

Compound	concentration at 45 minutes, ng/mL
CS(=O)(=O)c1ccc(C2=C(c3ccccc3)C(=O)OC2)cc1 [TRM-201]	56.8
